assay-system: GABA-A receptor; anion channel
experimental-protocol: Binding affinity for Diazepam sensitive (DS) isoform of the benzodiazepine (Bz) binding site on GABAA receptors
Format: protein-complex assay
observable: pKi
Give bare numbers, as −log10 of the molar value.

Example results:
{"molecule": "CCOC(=O)c1ncn2c1CN(C)C(=O)c1c(Cl)cccc1-2 [SARMAZENIL]", "assay-system": "GABA-A receptor; anion channel", "pKi": 9.70}
{"molecule": "CCc1cccc2c1C(=O)N1CCCC1c1c(C(=O)OC(C)(C)C)ncn1-2 (stereo not given)", "assay-system": "GABA-A receptor; anion channel", "pKi": 9.00}
{"molecule": "CCOC(=O)c1ncn2c1CN(Cc1ccccc1)C(=O)c1ccccc1-2", "assay-system": "GABA-A receptor; anion channel", "pKi": 8.82}

Please give pKi for each item listed below.
1. O=C(OC1CCCCC1)c1ncn2c1C1CCCN1C(=O)c1cc(Cl)ccc1-2 (stereo not given)
2. COc1cccc2c1C(=O)N1CCCC1c1c(C(=O)OC(C)(C)C)ncn1-2 (stereo not given)
3. C=CCN1Cc2c(C(=O)OCC)ncn2-c2ccccc2C1=O
4. CCOC(=O)c1ncn2c1CN(C)C(=O)c1c(F)cccc1-2
5. Cc1noc(-c2ncn3c2CN(Cc2ccccc2)C(=O)c2c(Cl)cccc2-3)n1
6. CCCOC(=O)c1nc(C)n2c1CN=C(c1ccccc1Cl)c1cc(Cl)ccc1-2
7. CCCOC(=O)c1ncn2c1CN=C(c1ccccc1Cl)c1cc(Cl)ccc1-2

6.41
8.29
7.41
9.10
8.12
8.66
8.72
